Attribution: paper PMC8307404

Listing of recorded remaining activity at 1 µM by entry.
# System Under Test: HIPK3 (Homo sapiens, UniProt Q9H422)
# Sequence (Q9H422 whole entry): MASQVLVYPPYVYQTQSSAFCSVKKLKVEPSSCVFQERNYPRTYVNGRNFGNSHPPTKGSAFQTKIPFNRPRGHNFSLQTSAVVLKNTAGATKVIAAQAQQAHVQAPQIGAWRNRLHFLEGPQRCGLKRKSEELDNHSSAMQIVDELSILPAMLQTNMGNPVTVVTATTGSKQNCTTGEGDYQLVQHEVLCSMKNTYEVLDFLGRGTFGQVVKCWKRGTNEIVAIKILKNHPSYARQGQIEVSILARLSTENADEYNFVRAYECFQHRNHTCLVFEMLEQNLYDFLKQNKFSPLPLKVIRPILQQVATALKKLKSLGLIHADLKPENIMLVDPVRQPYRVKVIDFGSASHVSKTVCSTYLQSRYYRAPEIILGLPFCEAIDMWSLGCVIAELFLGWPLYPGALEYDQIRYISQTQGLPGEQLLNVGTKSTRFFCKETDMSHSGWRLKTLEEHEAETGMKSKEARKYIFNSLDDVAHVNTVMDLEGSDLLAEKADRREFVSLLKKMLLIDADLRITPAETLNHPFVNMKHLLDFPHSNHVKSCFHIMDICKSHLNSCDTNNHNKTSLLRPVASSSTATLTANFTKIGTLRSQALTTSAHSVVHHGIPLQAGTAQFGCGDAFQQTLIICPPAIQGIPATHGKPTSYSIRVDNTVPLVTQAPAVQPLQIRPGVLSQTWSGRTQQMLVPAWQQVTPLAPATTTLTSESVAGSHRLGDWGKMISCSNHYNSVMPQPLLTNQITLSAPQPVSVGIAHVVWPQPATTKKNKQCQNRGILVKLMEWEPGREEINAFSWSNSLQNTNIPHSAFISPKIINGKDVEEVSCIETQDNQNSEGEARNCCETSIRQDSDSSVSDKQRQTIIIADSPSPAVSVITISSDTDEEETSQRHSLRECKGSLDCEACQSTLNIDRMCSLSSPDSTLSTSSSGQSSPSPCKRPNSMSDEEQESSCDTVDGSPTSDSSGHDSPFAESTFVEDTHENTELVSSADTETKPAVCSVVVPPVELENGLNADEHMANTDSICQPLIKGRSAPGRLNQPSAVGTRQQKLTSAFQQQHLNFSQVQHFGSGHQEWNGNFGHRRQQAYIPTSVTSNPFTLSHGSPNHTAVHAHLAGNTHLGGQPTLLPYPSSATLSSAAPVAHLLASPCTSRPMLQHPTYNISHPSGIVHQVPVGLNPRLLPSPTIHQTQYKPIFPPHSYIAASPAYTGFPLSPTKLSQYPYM
# Measurement Notes: Kinase profiling (radiometric filter-binding)
# Assay type: biochemical
# Run Parameters: HIPK3, 1 µM inhibitor; read-out: Residual activity, %
Square brackets hold non-standard residues; d marks the D form. Peptide text beside a SMILES is read from it. * marks the point of attachment. X3 = O=C(CCCCCNCc1nc2c(sc3cc(Br)cnc32)c(=O)[nH]1)*

Query: Find the recorded remaining activity at 1 µM belonging to N=C(N)NCCC[C@@H](NC(=O)CCCCCNC(=O)Cn1cnc2c(I)c(I)c(I)c(I)c21)C(=O)N[C@H](CCCNC(=N)N)C(=O)N[C@H](CCCNC(=N)N)C(=O)N[C@H](CCCNC(=N)N)C(=O)N[C@H](CCCNC(=N)N)C(=O)N[C@H](CCCNC(=N)N)C(=O)N[C@H](CCCCN)C(N)=O [ARC-3125, TIBI-CH2-C(=O)-Ahx-(D-Arg)6-D-Lys-NH2] and report it.
Response: 21%

Query: Find the recorded remaining activity at 1 µM belonging to N=C(N)NCCC[C@@H](NC(=O)CNC(=O)[C@@H](CCCNC(=N)N)NC(=O)[C@@H](CCCNC(=N)N)NC(=O)Cn1cc(CNCc2nc3c(sc4ccc(Br)cc43)c(=O)[nH]2)nn1)C(=O)N[C@H](CCCCN)C(N)=O [Compound 3, BBTP-Amt-(D-Arg)2-Gly-D-Arg-D-Lys-NH2] and report it.
Response: 57%

Query: Find the recorded remaining activity at 1 µM belonging to N=C(N)NCCC[C@@H](NC(=O)CNC(=O)[C@@H](CCCNC(=N)N)NC(=O)[C@@H](CCCNC(=N)N)NC(=O)CCCCCCCNCc1nc2c(sc3cc(Br)cnc32)c(=O)[nH]1)C(=O)N[C@H](CCCCN)C(N)=O [Compound 1, BPTP-Aoc-(D-Arg)2-Gly-D-Arg-D-Lys-NH2] and report it.
Response: 116%

With those in mind, consider the next compound.
Query: Find the recorded remaining activity at 1 µM belonging to N=C(N)NCCC[C@@H](NC(=O)CCCCCNCc1nc2c(sc3cc(Br)cnc32)c(=O)[nH]1)C(=O)N[C@H](CCCNC(=N)N)C(=O)N[C@H](CCCNC(=N)N)C(=O)N[C@H](CCCNC(=N)N)C(=O)N[C@H](CCCNC(=N)N)C(=O)N[C@H](CCCNC(=N)N)C(=O)N[C@H](CCCCN)C(N)=O [ARC-3126, BPTP-Ahx-(D-Arg)6-D-Lys-NH2] (X3-[dR][dR][dR][dR][dR][dR][dK]-NH2) and report it.
Response: 93%
